- SYSTEM UNDER TEST: AR having LNCaP-type mutation (Homo sapiens, UniProt P10275, T878A)
- Sequence (P10275 whole entry T878A): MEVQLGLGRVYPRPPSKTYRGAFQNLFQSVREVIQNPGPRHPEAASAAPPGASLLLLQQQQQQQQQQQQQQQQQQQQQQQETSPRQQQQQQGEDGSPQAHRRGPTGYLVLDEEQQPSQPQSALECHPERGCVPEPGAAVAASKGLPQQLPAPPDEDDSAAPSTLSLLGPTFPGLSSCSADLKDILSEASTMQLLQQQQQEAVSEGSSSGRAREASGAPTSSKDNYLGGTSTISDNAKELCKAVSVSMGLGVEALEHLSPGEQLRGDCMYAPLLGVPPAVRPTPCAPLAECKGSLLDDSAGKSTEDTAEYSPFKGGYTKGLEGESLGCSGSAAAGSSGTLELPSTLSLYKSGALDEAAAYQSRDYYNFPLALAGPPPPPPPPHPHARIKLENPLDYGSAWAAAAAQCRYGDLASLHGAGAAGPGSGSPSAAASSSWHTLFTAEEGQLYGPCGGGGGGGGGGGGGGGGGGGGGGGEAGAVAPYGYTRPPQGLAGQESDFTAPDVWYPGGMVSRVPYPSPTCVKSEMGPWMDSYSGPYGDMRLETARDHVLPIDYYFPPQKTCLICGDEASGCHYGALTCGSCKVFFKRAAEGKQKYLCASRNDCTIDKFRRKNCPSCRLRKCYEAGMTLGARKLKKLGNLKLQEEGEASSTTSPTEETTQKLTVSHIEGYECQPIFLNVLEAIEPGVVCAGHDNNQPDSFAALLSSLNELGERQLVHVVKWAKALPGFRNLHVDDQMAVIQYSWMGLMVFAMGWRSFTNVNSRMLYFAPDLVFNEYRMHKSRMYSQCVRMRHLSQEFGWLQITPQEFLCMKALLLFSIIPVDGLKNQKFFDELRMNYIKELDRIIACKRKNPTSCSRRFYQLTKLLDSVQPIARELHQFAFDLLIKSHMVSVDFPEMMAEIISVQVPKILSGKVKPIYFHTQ
- TEST DESCRIPTION: AR binding inhibitory test (LNCaP-type), radiolabeled mibolerone
- EXPERIMENTAL CONTEXT: 100 nM compound, 3 nM radiolabeled mibolerone, 4° C. 3 hr; Table 6; read-out: Inhibitory rate (%) at 100 nM LNcap-type
MEASUREMENT NAME: inhibition at 0.1 µM (%)
Numbers only; they are read as %.

As a guide, the following entries are already answered.
>  <COMPOUND>
CC(C)[C@H]1[C@@H](O)CCN1c1ccc(C#N)c(C(F)(F)F)c1 [Compound 82]

>  <inhibition at 0.1 µM (%)>
97

$$$$
>  <COMPOUND>
C[C@H]1[C@@H](C(C)(C)O)CCN1c1ccc(C#N)c(Cl)c1F [Compound 53]

>  <inhibition at 0.1 µM (%)>
98

$$$$
>  <COMPOUND>
C[C@H]1[C@@H](C(C)(C)O)CCN1c1ccc(C#N)cc1C(F)(F)F [Compound 80]

>  <inhibition at 0.1 µM (%)>
95

$$$$
>  <COMPOUND>
C[C@H]1[C@@H](C(C)(C)O)CCN1c1ccc(C#N)c(Cl)c1Cl [Compound 75]

>  <inhibition at 0.1 µM (%)>
99

$$$$

Now for another entry.
Input: Please list inhibition at 0.1 µM recorded for the compound C[C@H]1[C@@H](C(C)(C)O)CCN1c1ccc(C#N)c(Br)c1 [Compound 71]
Output: 97

###

- SYSTEM UNDER TEST: wild-type androgen receptor (AR) (Homo sapiens)
- TEST DESCRIPTION: AR binding inhibitory test (wild-type), radiolabeled mibolerone
- EXPERIMENTAL CONTEXT: 100 nM compound, 3 nM radiolabeled mibolerone, 4° C. 3 hr; Table 6; read-out: Inhibitory rate (%) at 100 nM wild-type
MEASUREMENT NAME: inhibition at 0.1 µM (%)
Please state the figure in %; there is no need to write the unit.

>  <COMPOUND>
C[C@H]1[C@@H](C(C)(C)O)CCN1c1ccc(C#N)c(Cl)c1F [Compound 53]

>  <SYSTEM UNDER TEST>
wild-type androgen receptor (AR) (Homo sapiens)

>  <inhibition at 0.1 µM / %>
98

$$$$

Input: Entry C[C@H]1[C@@H](C(C)(C)O)CCN1c1ccc(C#N)c(Cl)c1Cl [Compound 75] needs its inhibition at 0.1 µM filled in; supply it.
Output: 99

Input: Supply inhibition at 0.1 µM value. Item: C[C@H]1[C@@H](C(C)(C)O)CCN1c1ccc(C#N)cc1C(F)(F)F [Compound 80]
Output: 97

Input: Indicate its recorded inhibition at 0.1 µM; the compound in question is C[C@H]1[C@@H](C(C)(C)O)CCN1c1ccc(C#N)c(Br)c1 [Compound 71]
Output: 99

Input: Could you please provide reported inhibition at 0.1 µM for CC(C)[C@H]1[C@@H](O)CCN1c1ccc(C#N)c(C(F)(F)F)c1 [Compound 82] ? Thanks!
Output: 98

###

- SYSTEM UNDER TEST: AR (wild-type) (Homo sapiens)
- Construct: expressed in transfected cells; host or cells: Cos-7
- Sequence (P10275 whole entry): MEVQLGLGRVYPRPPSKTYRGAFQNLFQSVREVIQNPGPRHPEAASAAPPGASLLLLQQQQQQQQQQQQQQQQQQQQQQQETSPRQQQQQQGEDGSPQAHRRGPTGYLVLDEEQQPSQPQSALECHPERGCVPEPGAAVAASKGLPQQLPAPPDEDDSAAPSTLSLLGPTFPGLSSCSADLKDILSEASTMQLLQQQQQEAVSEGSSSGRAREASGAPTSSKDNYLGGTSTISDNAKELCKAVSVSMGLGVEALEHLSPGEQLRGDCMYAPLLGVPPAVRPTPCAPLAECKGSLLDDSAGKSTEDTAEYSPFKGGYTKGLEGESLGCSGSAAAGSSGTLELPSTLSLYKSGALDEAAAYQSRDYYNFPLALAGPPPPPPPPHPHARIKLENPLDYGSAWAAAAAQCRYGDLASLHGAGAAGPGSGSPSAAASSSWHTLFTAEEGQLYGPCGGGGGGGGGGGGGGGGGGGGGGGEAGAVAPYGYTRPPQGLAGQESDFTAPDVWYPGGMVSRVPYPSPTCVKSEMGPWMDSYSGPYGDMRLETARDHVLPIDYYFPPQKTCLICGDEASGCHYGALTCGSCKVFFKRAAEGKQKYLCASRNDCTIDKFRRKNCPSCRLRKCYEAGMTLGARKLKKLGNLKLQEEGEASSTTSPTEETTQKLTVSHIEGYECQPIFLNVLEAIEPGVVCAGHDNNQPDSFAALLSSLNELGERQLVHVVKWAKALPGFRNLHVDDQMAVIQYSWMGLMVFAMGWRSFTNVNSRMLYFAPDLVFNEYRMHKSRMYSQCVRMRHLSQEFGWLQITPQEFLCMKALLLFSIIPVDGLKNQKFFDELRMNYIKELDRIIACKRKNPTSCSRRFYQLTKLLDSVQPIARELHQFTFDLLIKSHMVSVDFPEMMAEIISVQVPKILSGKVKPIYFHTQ
- TEST DESCRIPTION: Reporter assay system using Cos7 cell, luciferase under MMTV-derived androgen responsive promoter
- Assay type: cell-based
- EXPERIMENTAL CONTEXT: 100 nM compound, 24 hr, luciferase activity with 1 μM 5α-dihydrotestosterone as 100
MEASUREMENT NAME: Induction rate (%) at 100 nM wild-type
A bare number is not enough; add the unit after it.

>  <MOLECULE SMILES>
C[C@H]1[C@@H](C(C)(C)O)CCN1c1ccc(C#N)cc1C(F)(F)F

>  <Induction rate (%) at 100 nM wild-type>
22%

$$$$
>  <MOLECULE SMILES>
C[C@H]1[C@@H](C(C)(C)O)CCN1c1ccc(C#N)c(Cl)c1F

>  <Induction rate (%) at 100 nM wild-type>
33%

$$$$
>  <MOLECULE SMILES>
CC(C)[C@H]1[C@@H](O)CCN1c1ccc(C#N)c(C(F)(F)F)c1

>  <Induction rate (%) at 100 nM wild-type>
90%

$$$$
>  <MOLECULE SMILES>
C[C@H]1[C@@H](C(C)(C)O)CCN1c1ccc(C#N)c(Cl)c1Cl

>  <Induction rate (%) at 100 nM wild-type>
60%

$$$$

Turning now to a further compound:
Input: In one line, give reported Induction rate (%) at 100 nM wild-type of the entry C[C@H]1[C@@H](C(C)(C)O)CCN1c1ccc(C#N)c(Br)c1 .
Output: 31%
